- tested.system: HLA-DRB1*0101 (Homo sapiens, UniProt P01903+P01911, A100R/D57E/F55L/F60I/F76Y/I96L/L162R/M171V/P40L/Q125E/R42F/V115G/Y59C)
- Construct: purchased
- protocol: biochemical
- Format: binding
- settings: binding inhibition assay; NB = non-binder (no dose-dependent inhibition); read-out: DRB1*0101 IC50
pIC50: −log10 of the molar value. Where a SMILES comes first, the peptide text is derived from it.

[
  {
    "molecule": "CC[C@H](C)[C@H](NC(=O)[C@H](Cc1ccccc1)NC(=O)[C@H](Cc1c[nH]cn1)NC(=O)[C@H](CC(=O)O)NC(C)=O)C(=O)N[C@@H](CCC(=O)O)C(=O)N[C@@H](C)C(=O)N[C@@H](CO)C(=O)N[C@@H](CCCCN)C(=O)N[C@@H](CCCCN)C(=O)N[C@@H](CCC(=O)O)C(=O)N[C@@H](CO)C(=O)N[C@@H](CCC(N)=O)C(=O)N[C@@H](CC(C)C)C(=O)N[C@@H](CC(C)C)C(N)=O [EBA175_006] (Ac-DHFIEASKKESQLL-NH2)",
    "pIC50": 5.18
  }
]

###

- tested.system: HLA-A*2402 (Homo sapiens, UniProt P04439, D101N/D140Y/D185E/E176V/E190D/F33S/G103R/G107R/I119L/I121M/I306V/K335N/L105A/L180Q/L300P/N151K/N90K/Q86E/Q94H/R106L/R138H/R89G/T104I/T345S/V100E/W191G/Y123F)
- protocol: In vitro class I HLA binding assay (fluorescence polarization competition)
- settings: allele A*2402; fluorescence polarization competition; read-out: IC50 (nM), in vitro HLA binding affinity
Where a SMILES comes first, the peptide text is derived from it.

[
  {
    "compound": "CC[C@H](C)[C@H](NC(=O)[C@H](Cc1ccccc1)NC(=O)[C@H](CC(C)C)NC(=O)[C@H](Cc1ccc(O)cc1)NC(=O)[C@@H](N)CCCCN)C(=O)N1CCC[C@H]1C(=O)N[C@@H](CO)C(=O)N[C@@H](Cc1c[nH]cn1)C(=O)N[C@@H](CC(N)=O)C(=O)O [RH5_096] (H-KYLFIPSHN-OH)",
    "IC50 / nM": 6120
  },
  {
    "compound": "CC[C@H](C)[C@H](NC(=O)[C@@H](N)CCSC)C(=O)N[C@H](C(=O)N1CCC[C@H]1C(=O)N[C@@H](Cc1ccccc1)C(=O)N[C@@H](Cc1c[nH]cn1)C(=O)N[C@@H](CCCCN)C(=O)N[C@@H](CCCCN)C(=O)N[C@@H](Cc1ccccc1)C(=O)O)[C@@H](C)CC [CYRPA_001] (H-MIIPFHKKF-OH)",
    "IC50 / nM": 295
  },
  {
    "compound": "CC[C@H](C)[C@H](NC(=O)[C@@H](NC(=O)[C@H](Cc1ccccc1)NC(=O)[C@@H](N)CC(=O)O)C(C)C)C(=O)N[C@H](C(=O)N1CCC[C@H]1C(=O)N[C@@H](Cc1c[nH]cn1)C(=O)N[C@@H](Cc1ccc(O)cc1)C(=O)N[C@H](C(=O)N[C@@H](Cc1ccccc1)C(=O)O)[C@@H](C)O)[C@@H](C)CC [RH5_172] (H-DFVIIPHYTF-OH)",
    "IC50 / nM": 289
  },
  {
    "compound": "CC[C@H](C)[C@H](N)C(=O)N[C@@H](Cc1c[nH]c2ccccc12)C(=O)N[C@@H](CCCNC(=N)N)C(=O)N[C@H](C(=O)N[C@@H](Cc1ccccc1)C(=O)N[C@@H](CCC(N)=O)C(=O)N[C@@H](CCCCN)C(=O)N[C@@H](CC(=O)O)C(=O)N[C@@H](CCC(=O)O)C(=O)N[C@@H](CC(C)C)C(=O)O)[C@@H](C)O [RH5_446] (H-IWRTFQKDEL-OH)",
    "IC50 / nM": 625
  },
  {
    "compound": "CC[C@H](C)[C@H](NC(=O)[C@H](Cc1ccccc1)NC(=O)[C@@H](N)CO)C(=O)N[C@@H](CCCCN)C(=O)N[C@@H](CCCCN)C(=O)N[C@@H](Cc1ccc(O)cc1)C(=O)N[C@@H](CO)C(=O)N[C@H](C(=O)N[C@@H](Cc1ccccc1)C(=O)O)C(C)C [RH5_105] (H-SFIKKYSVF-OH)",
    "IC50 / nM": 38.3
  },
  {
    "compound": "CC[C@H](C)[C@H](NC(=O)[C@H](Cc1ccc(O)cc1)NC(=O)[C@@H]1CCCN1)C(=O)N[C@@H](CO)C(=O)N[C@@H](CCCCN)C(=O)N[C@@H](Cc1ccc(O)cc1)C(=O)NCC(=O)N[C@@H](CC(N)=O)C(=O)N[C@@H](CCCCN)C(=O)N[C@@H](CC(C)C)C(=O)O [RIPR_0664] (H-PYISKYGNKL-OH)",
    "IC50 / nM": 180
  }
]
